- measured.target: human A2AR (Homo sapiens, UniProt P29274)
- Construct: expressed in transfected cells; host or cells: HEK 293T
- Sequence (P29274 whole entry): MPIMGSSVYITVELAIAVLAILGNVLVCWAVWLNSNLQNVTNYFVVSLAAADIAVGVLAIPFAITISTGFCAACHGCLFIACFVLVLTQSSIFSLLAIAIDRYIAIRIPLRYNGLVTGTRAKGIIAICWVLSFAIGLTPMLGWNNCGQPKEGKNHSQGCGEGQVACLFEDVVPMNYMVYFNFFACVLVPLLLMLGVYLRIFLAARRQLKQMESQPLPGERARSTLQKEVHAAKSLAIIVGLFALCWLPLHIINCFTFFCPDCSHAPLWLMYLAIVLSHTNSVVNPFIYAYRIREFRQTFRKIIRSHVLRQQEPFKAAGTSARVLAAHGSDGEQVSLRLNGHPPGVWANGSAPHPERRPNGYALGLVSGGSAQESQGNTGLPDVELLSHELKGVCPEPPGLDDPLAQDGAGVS
- protocol.details: Radioligand competitive binding assay, [3H] ZM 241385 displacement
- experimental.conditions: ratio Ki A1 / Ki A2A
measured.metric: A1/A2A (selectivity)

Known results for compounds:
CCCn1c(/N=C/c2ccc(F)cc2)c(C#N)sc1=S | 3393.3
N#Cc1sc(=S)n(CCc2ccccc2)c1/N=C/c1ccc(Br)cc1 | 3.73
CCCn1c(/N=C/c2ccc(Cl)cc2)c(C#N)sc1=S | 0.042
CCCCn1c(/N=C/c2ccc(Br)cc2)c(C#N)sc1=S | 0.013
CCn1c(/N=C/c2ccc(Cl)cc2)c(C#N)sc1=S | 13.76
CCCn1c(/N=C/c2ccc(Br)cc2)c(C#N)sc1=S | 337.05
N#Cc1sc(=S)n(-c2ccccc2)c1/N=C/c1ccc(F)cc1 | 0.13
CCCCn1c(N=Cc2ccc(F)cc2)c(C#N)sc1=S | 618.51
CCn1c(/N=C/c2ccc(Br)cc2)c(C#N)sc1=S | 0.074
CCn1c(/N=C/c2ccc(F)cc2)c(C#N)sc1=S | 0.000053

Please look at the following compound next.
Measured A1/A2A (selectivity), N#Cc1sc(=S)n(CCc2ccccc2)c1N=Cc1ccc(F)cc1 : 336.81

###

- measured.target: human A2AR (Homo sapiens)
Lab note - cut at 2 nM for Ki: YES if strictly below, NO if not.

N#Cc1sc(=S)n(CCc2ccccc2)c1N=Cc1ccc(F)cc1 | NO
CCn1c(/N=C/c2ccc(Br)cc2)c(C#N)sc1=S | YES
CCCn1c(/N=C/c2ccc(Br)cc2)c(C#N)sc1=S | YES
N#Cc1sc(=S)n(-c2ccccc2)c1/N=C/c1ccc(F)cc1 | YES

Req: I'd appreciate it if you could check whether CCCCn1c(N=Cc2ccc(F)cc2)c(C#N)sc1=S has Ki smaller than 2 nM.
Resp: YES

Origin of values: patent US9518033B2
